For each of the compounds below, state its Bliss excess.
# System: A2780 (Ovarian Carcinoma);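 also: after 72 h of two-drug dosing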
# ASSAY_COMMENT: Bliss excess, mean over the matrix (fraction); higher = more synergy

Check out these entries, answers already filled in.
| COMPOUND | STUDY_SYSTEM | Bliss excess |
| --- | --- | --- |
| C[C@@H]1COCCN1c1cc(C2([S@](C)(=N)=O)CC2)nc(-c2ccnc3[nH]ccc23)n1 [AZD6738] + O=C(c1cc(Cc2n[nH]c(=O)c3ccccc23)ccc1F)N1CCN(C(=O)C2CC2)CC1 [Olaparib] (first compound max 10 µM, 7x7, partner max 10 µM) | A2780 (Ovarian Carcinoma) | 0.006 |
| COc1cccc2c1C(=O)c1c(O)c3c(c(O)c1C2=O)C[C@@](O)(C(=O)CO)C[C@@H]3O[C@H]1C[C@H](N)[C@H](O)[C@H](C)O1 [Doxorubicin] + Cc1cc2ncnn2cc1Nc1ncc2c(n1)n(C1CCOCC1)c(=O)n2C [AZD7648] (first compound max 1 µM, 7x7, partner max 10 µM) | A2780 (Ovarian Carcinoma) | 0.0194 |
| CN(C)CCCOc1ccc(-c2ccc3ncc4c(c3c2)n(C2CCOCC2)c(=O)n4C)cn1 [AZD0156] + C[C@@H]1COCCN1C2=NC(=NC(=C2)C3(CC3)[S@](=N)(=O)C)C4=C5C=CNC5=NC=C4 [AZD6738] (first compound max 1 µM, 7x7, partner max 10 µM) | A2780 (Ovarian Carcinoma) | -0.0114 |
| COc1cccc(OCCCN)c1-c1cc(Nc2cnc(C#N)cn2)n[nH]1 [Prexasertib] + C=CCn1c(=O)c2cnc(Nc3ccc(N4CCN(C)CC4)cc3)nc2n1-c1cccc(C(C)(C)O)n1 [AZD1775] (first compound max 1 µM, partner max 1 µM) | A2780 (Ovarian Carcinoma) | 0.155 |
| C[C@@H](Nc1cc(F)cc(F)c1)c1cc(C(=O)N(C)C)cc2c(=O)cc(N3CCOCC3)oc12 [AZD8186] + C1CN(CCC1(C(=O)N[C@@H](CCO)C2=CC=C(C=C2)Cl)N)C3=NC=NC4=C3C=CN4 [AZD5363] (first compound max 10 µM, 7x7, partner max 10 µM) | A2780 (Ovarian Carcinoma) | -0.0411 |
| COc1nnc2ccc(N3CCC(c4ccc(OCCN5CCN(C)C(=O)[C@H]5C)cc4)CC3)nn12 [AZD5153] + Cn1cnc2c(F)c(Nc3ccc(Br)cc3Cl)c(C(=O)NOCCO)cc21 [Selumetinib] (first compound max 1 µM, 7x7, partner max 10 µM) | A2780 (Ovarian Carcinoma) | -0.0118 |

Attention now shifts to the item below.
Ask: Answer with the recorded Bliss excess of CCN(CCO)CCCOc1ccc2c(Nc3cc(CC(=O)Nc4cccc(F)c4)[nH]n3)ncnc2c1 [AZD2811] + O=C(c1cc(Cc2n[nH]c(=O)c3ccccc23)ccc1F)N1CCN(C(=O)C2CC2)CC1 [Olaparib] (first compound max 1 µM, 7x7, partner max 10 µM) only.
Reply: 0.0453
